# method_summary: Primary qHTS for Huh7 cytotoxicity: counterscreen for inhibitors of MERS-S pseudotyped particle cell entry (AID 1479147)
# recorded_conditions: cell viability read-out; series mostly up to 57.1 µM
Inconclusive results are not listed. Active and inactive are the calls of the source. The call rests on the fitted dose curve.
Classes used: true (1) (active), false (0) (inactive)

molecule=CN(C)C(=S)SC(=S)N(C)C class="true (1)"
molecule=NC(=O)OCCCc1ccccc1 class="false (0)"
molecule=CCCCCC(=O)O[C@]1(C(C)=O)CC[C@H]2[C@@H]3CCC4=CC(=O)CC[C@]4(C)[C@H]3CC[C@@]21C class="false (0)"
molecule=OC(CCN1CCCCC1)(c1ccccc1)c1ccccc1 class="false (0)"
molecule=CN1CCCN=C1/C=C/c1cccs1 class="false (0)"
molecule="COc1ccnc2c1CCCCC2S(=O)c1nc2ccccc2[nH]1 (stereo not drawn)" class="false (0)"
molecule=O=S1(=O)OC(c2ccc(O)cc2)(c2ccc(O)cc2)c2ccccc21 class="false (0)"
molecule=CCCCCCCCCCCCCCCC[N+](C)(C)Cc1ccccc1 class="false (0)"
molecule=C[C@H]1COc2c(C3(N)CC3)c(F)cc3c(=O)c(C(=O)O)cn1c23 class="false (0)"
molecule=CCOCCn1c(N2CCCN(C)CC2)nc2ccccc21 class="false (0)"
molecule=O=C(O)CCNC(=O)c1ccccc1 class="false (0)"
molecule=CCCCC(=O)O[C@]1(C(=O)CO)CC[C@H]2[C@@H]3CCC4=CC(=O)CC[C@]4(C)[C@H]3[C@@H](O)C[C@@]21C class="false (0)"
molecule=CCOC(=O)C1=C[C@]2(CC)CCCN3CCc4c(n1c1ccccc41)[C@@H]32 class="false (0)"
molecule="CN1C(=O)CC(c2ccccc2)C1=O (stereo not drawn)" class="false (0)"
molecule="CC(CNC1CCCCC1)OC(=O)c1ccccc1 (stereo not drawn)" class="false (0)"
molecule=O=c1cc(CO)occ1O class="false (0)"
molecule=CCN(CC)CC(=O)Nc1c(C)cccc1C(=O)OC class="false (0)"
molecule=O=C(CCCCCCCCC#CI)Oc1ccccc1 class="false (0)"
molecule=COP(=O)(OC)OC=C(Cl)Cl class="false (0)"
molecule=CCCCOc1ccc(CC(=O)NO)cc1 class="false (0)"
molecule=O=C(O)COC(=O)Cc1ccccc1Nc1c(Cl)cccc1Cl class="false (0)"
molecule=O=C1O[C@H]([C@@H](O)CO)C(O)=C1O class="false (0)"
molecule=Cn1c(=O)c2c(ncn2C)n(C)c1=O class="false (0)"
molecule="CN1CCOC(c2ccccc2)c2ccccc2C1 (stereo not drawn)" class="false (0)"
molecule=O=C(O)c1ccc(OCCCOc2ccc(C(=O)O)cc2)cc1 class="false (0)"
molecule="NC1=NCC2c3ccccc3Cc3ccccc3N12 (stereo not drawn)" class="false (0)"
molecule="CC1COC2(c3ccccc3Cl)c3cc(Cl)ccc3NC(=O)CN12 (stereo not drawn)" class="false (0)"
molecule=C=C1C(=C/C=C2\CCC[C@]3(C)[C@@H]([C@H](C)/C=C/[C@@H](O)C4CC4)CC[C@@H]23)C[C@@H](O)C[C@@H]1O class="false (0)"
molecule="CCCCC(CC)COC(=O)C(C#N)=C(c1ccccc1)c1ccccc1 (stereo not drawn)" class="false (0)"
molecule=Cc1cc(C(C)(C)C)cc(C)c1CC1=NCCN1 class="false (0)"
molecule=CCOC(=O)[C@H](CCc1ccccc1)N[C@@H](C)C(=O)N1C(=O)N(C)C[C@H]1C(=O)O class="false (0)"
molecule=c1ccc2[nH]c(-c3cscn3)nc2c1 class="false (0)"
molecule=CCOC(=O)c1ncn2c1CN(C)C(=O)c1c(I)cccc1-2 class="false (0)"
molecule="O[C@@H](COc1cccc2ncccc12)CN1CCN(C2c3ccccc3[C@@H]3[C@H](c4ccccc42)C3(F)F)CC1 (stereo partly drawn)" class="false (0)"
molecule="CC(C)C(=O)Nc1cccc(C2CN3CCSC3=N2)c1 (stereo not drawn)" class="false (0)"
molecule=Cc1ccc(Nc2c(F)cccc2Cl)c(CC(=O)O)c1 class="false (0)"
molecule=Cn1cnc2c1c(=O)[nH]c(=O)n2C class="false (0)"
molecule=O=C(O)C(=O)Nc1cccc(-c2nn[nH]n2)c1 class="false (0)"
molecule=CN(Cc1ccc(C(C)(C)C)cc1)Cc1cccc2ccccc12 class="false (0)"
molecule=CC1(C)[C@@H]2CC[C@@]1(C)C(=O)C2 class="false (0)"
molecule=N=C(N)c1ccc(OCCCOc2ccc(C(=N)N)cc2)cc1 class="false (0)"
molecule=CCOc1c(N2CCOCC2)cnn(C)c1=O class="false (0)"
molecule="C[C@@H]1CCC[C@H](C)N1CCCC(O)(c1ccccc1)c1ccccn1 (stereo partly drawn)" class="false (0)"
molecule=Clc1ccc(Cn2c(CN3CCCC3)nc3ccccc32)cc1 class="false (0)"
molecule="COc1ccc2[nH]c(S(=O)Cc3ncc(C)c(OC)c3C)nc2n1 (stereo not drawn)" class="false (0)"
molecule=COc1cc(N)c(Cl)cc1C(=O)NC1CCN(Cc2ccccc2)CC1 class="false (0)"
molecule=O=C(OCc1ccccc1)c1ccc(O)cc1 class="false (0)"
molecule="CC(C)(C)NCC(O)COc1cccc2c1CCC(=O)N2 (stereo not drawn)" class="false (0)"
